The measurements presented in this section are drawn from paper PMC10410819.

tested-target: ACE (Homo sapiens, UniProt P12821)
Construct: purchased Dojindo Molecular Technology Inc., Kumamoto, Japan
Sequence (P12821 30-1306, species assumed): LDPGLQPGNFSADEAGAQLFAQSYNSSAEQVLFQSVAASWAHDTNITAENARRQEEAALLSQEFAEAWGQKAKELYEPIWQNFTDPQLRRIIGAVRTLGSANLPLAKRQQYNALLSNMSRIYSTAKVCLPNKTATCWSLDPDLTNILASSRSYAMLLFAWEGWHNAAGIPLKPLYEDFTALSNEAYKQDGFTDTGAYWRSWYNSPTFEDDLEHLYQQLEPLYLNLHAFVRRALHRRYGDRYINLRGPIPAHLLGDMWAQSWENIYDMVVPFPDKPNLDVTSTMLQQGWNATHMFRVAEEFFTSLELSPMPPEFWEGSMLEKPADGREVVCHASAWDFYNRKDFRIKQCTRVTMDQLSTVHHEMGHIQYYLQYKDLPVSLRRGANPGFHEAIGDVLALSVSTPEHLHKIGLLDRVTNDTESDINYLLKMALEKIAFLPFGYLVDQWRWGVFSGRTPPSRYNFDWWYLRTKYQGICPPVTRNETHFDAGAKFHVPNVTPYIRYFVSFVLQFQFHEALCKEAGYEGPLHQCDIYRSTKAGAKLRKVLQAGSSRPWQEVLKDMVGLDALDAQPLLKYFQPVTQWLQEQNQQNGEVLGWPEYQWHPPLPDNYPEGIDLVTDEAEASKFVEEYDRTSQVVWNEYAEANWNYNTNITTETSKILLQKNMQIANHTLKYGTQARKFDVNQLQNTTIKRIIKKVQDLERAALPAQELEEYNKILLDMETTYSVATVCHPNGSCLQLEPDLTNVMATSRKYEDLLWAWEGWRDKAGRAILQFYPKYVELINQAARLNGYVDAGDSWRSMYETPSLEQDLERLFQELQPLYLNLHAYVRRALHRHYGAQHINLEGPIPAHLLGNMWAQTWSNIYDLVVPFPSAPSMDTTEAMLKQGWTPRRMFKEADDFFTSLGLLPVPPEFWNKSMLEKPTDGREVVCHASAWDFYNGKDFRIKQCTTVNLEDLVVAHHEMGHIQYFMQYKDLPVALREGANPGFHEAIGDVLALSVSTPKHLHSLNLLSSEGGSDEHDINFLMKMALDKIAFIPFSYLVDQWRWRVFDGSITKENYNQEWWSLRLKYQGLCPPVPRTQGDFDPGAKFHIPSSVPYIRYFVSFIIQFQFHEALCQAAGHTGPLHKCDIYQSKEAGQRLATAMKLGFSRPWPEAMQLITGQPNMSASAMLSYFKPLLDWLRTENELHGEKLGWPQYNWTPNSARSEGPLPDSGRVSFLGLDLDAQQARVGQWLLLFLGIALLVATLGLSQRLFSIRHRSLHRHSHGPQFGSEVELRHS
assay-explanation: ACE inhibitory activity assay kit
Type: biochemical
condition-parameters: synthetic peptides; captopril positive control; read-out: IC50 ACE inhibition
Residues, ends and D or L forms follow the SMILES beside them.
measured-property: pIC50
Numbers only, as −log10 of the molar value.

-- ask Read off the recorded pIC50 for N[C@@H](Cc1ccc(O)cc1)C(=O)N[C@@H](CO)C(=O)N[C@@H](Cc1ccccc1)C(=O)O [Tyr-Ser-Phe] (H-Tyr-Ser-Phe-OH; N-terminus and C-terminus assumed)
-- reply 4.35
